# test-system: BoNT/A light chain (LCA) (Clostridium botulinum type A, UniProt P0DPI1 2-448)
# Sequence (P0DPI1 2-448): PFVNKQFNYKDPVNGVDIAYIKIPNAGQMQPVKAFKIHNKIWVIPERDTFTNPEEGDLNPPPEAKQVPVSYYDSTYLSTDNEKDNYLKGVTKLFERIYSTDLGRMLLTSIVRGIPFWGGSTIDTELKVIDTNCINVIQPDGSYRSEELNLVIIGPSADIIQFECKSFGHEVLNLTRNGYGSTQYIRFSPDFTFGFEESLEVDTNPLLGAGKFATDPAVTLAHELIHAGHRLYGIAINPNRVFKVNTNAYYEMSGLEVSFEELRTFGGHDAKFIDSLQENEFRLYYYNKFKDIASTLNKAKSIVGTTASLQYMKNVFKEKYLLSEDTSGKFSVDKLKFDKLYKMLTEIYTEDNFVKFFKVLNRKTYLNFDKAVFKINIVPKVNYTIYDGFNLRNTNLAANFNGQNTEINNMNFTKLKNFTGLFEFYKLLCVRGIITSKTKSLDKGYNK
pIC50: −log10 of the molar value.
// reported pIC50 per item
measured-parameter: pIC50

| binder | value-measured |
| --- | --- |
| TW3 2'-F modified (XNA, 2'-fluoro pyrimidines (C and U)) RNA: GGGUACCCACUCAGGUACGUGGGAAUUGAGCGGGUCACACUAUAAGCACGAGCCUUAGACAGCUUUCUAGAAUUAAGCUUAGGC | 6.14 |
| TW1 2'-F modified (XNA, 2'-fluoro pyrimidines (C and U)) RNA: GGGUACCCACUCAGGUACGAUUGGUGCGAUAAACUAGACUCGUCAUGCGCAGUCUCCUACAGCUUUCUAGAAUUAAGCUUAGGC | 6.19 |
